Cited source for all entries: paper PMC4051630

# measurement_target: STK3 Catalytic domain+SARAH (Homo sapiens)
# Construct: for 8, we also made a longer version containing one or more additional domains; His-tag; made in house; host or cells: Escherichia coli
# Sequence (Q13188 whole entry, the tested form may be a part): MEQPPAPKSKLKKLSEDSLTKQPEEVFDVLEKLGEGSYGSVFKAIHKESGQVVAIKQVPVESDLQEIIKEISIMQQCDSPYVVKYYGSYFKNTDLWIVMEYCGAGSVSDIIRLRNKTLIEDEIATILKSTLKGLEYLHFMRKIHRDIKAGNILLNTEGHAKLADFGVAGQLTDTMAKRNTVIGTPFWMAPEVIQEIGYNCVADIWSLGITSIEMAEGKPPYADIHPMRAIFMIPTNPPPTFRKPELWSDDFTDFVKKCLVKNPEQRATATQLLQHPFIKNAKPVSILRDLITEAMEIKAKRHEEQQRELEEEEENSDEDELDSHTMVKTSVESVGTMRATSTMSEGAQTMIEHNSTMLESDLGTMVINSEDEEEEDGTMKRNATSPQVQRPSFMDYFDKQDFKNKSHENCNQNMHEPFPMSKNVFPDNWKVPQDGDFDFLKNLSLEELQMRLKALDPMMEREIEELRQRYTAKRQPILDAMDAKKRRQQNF
# test: Differential Scanning Fluorimetry (DSF) Tm shift
# Assay type: binding
# test_conditions: 2 µM protein, 10 µM inhibitor, average of 3 experiments, each in duplicate
metric_name: Melting temperature (Tm) shift (degrees Celcius)
Output spec: scalar in degrees Celcius, unitless text.

Requested read-out Melting temperature (Tm) shift, target or system STK3 Catalytic domain+SARAH (Homo sapiens), entry O=C1Nc2ccc(Cl)cc2C1=Cc1cc(Cl)c(O)c(Cl)c1 [PKR Inhibitor, Negative Control]
2.1

Requested read-out Melting temperature (Tm) shift, target or system STK3 Catalytic domain+SARAH (Homo sapiens), entry Cc1ccc([N+](=O)[O-])cc1S(=O)(=O)N(C)N=Cc1cnc2ccc(Br)cn12.Cl.O.O [PI 3-Kα Inhibitor VIII]
4.2

Requested read-out Melting temperature (Tm) shift, target or system STK3 Catalytic domain+SARAH (Homo sapiens), entry N#CCCc1ccc2c(c1)-c1[nH]c3ccc([N+](=O)[O-])cc3c1CC(=O)N2 [Alsterpaullone, 2-Cyanoethyl]
1.5

Requested read-out Melting temperature (Tm) shift, target or system STK3 Catalytic domain+SARAH (Homo sapiens), entry O=C1NC(=O)/C(=C/c2ccc3nccnc3c2)S1 [PI 3-Kg Inhibitor]
0.1

Requested read-out Melting temperature (Tm) shift, target or system STK3 Catalytic domain+SARAH (Homo sapiens), entry O=C1c2ccccc2-c2n[nH]c3cccc1c23 [JNK Inhibitor II]
1.3

Requested read-out Melting temperature (Tm) shift, target or system STK3 Catalytic domain+SARAH (Homo sapiens), entry COc1cc2ncnc(Nc3ccc(OCc4ccccc4)cc3)c2cc1OC [EGFR/ErbB-2 Inhibitor]
0.2

Requested read-out Melting temperature (Tm) shift, target or system STK3 Catalytic domain+SARAH (Homo sapiens), entry CC(C)n1cnc2c(NCc3ccccc3O)nc(NCCCO)nc21 [Cdk Inhibitor, p35]
0.4

Requested read-out Melting temperature (Tm) shift, target or system STK3 Catalytic domain+SARAH (Homo sapiens), entry CC(C)(C)c1nc2c3cc[nH]c(=O)c3c3cc(F)ccc3c2[nH]1 [JAK Inhibitor I]
3.2
